# Test system: HL-60
# Assay Text: NCI tumour cell line growth inhibition, 48 h
Active and inactive are the calls of the source. No stated cut-off is given here; in the data, active = GI50 up to about 1.1 µM and inactive = higher.
Lab note: assign the record to one of 1 = active, -1 = inactive

Compound	Group
OCCOCn1nncc1Cn1ncc2c(SCc3ccccc3)ncnc21	-1
CC(=O)c1cc2c(s1)C(=O)c1ccsc1C2=O	1
CC(/C=C/C=C\C=C\C=C(/C)C(=O)NC(C)CO)=C\C(C)C(O)/C(C)=C/C(C)CCc1ccccc1 (stereo not drawn)	-1

# fetch the recorded call for COC(=O)CCC(C)[C@H]1CCC2C3C(C[C@H](OC(C)=O)[C@@]21C)[C@@]1(C)CCC2(C[C@H]1C[C@H]3OC(C)=O)OOC1(CCCCCCC1)OO2 (stereo partly drawn) here
-1

# fetch the recorded call for CCCC[C@H]1CCN2C[C@@H](O)[C@@H](O)[C@H]2[C@@H]1O here
-1

# fetch the recorded call for COc1cccc(Nc2nc(C)c([N+](=O)[O-])c(Nc3cccc(OC)c3)n2)c1 here
-1

# fetch the recorded call for Cn1cc2c3ccccc3nc-2c2ccccc21 [ISOCRYPTOLEPINE] here
-1

# fetch the recorded call for CC(=O)OCC1OC(n2c(=O)[nH]c(=O)c3sccc32)C(Br)C1OC(C)=O (stereo not drawn) here
-1

# fetch the recorded call for Cc1ccc(S(=O)(=O)N2C[C@](O)(c3ccccc3)[C@H]2C)cc1 here
-1

# fetch the recorded call for COS(C)(=O)=O [METHANESULFONIC ACID METHYL ESTER] here
-1

---

# Tested on: MDA-N
# Assay Text: NCI tumour cell line growth inhibition, 48 h
The source made the active and inactive calls. Rule as the data show it: active = GI50 up to about 1.1 µM and inactive = higher.
Could you please report measured GI50 for the items listed next?

Observe how each entry below is paired with its result.
> print(dat)
                                   compound  readout.name  experimental.result
1     O=c1[nH]c2cc3cccnc3c(Cl)c2nc1C(F)(F)F          GI50   37.2 µM (inactive)
2  Cc1cn(C2CC(COCc3ccccc3)N(CCO[Si](C)(C)C(C)(C)C)O2)c(=O)[nH]c1=O (stereo not drawn)          GI50   14.6 µM (inactive)

Now for another entry.
I'm curious: which GI50 was measured for Clc1ccc(CSc2ncnc3c2ncn3C2CCCCO2)cc1 (stereo not drawn) tested on MDA-N?
20.1 µM (inactive)

---

# Tested on: 786-0
# Assay Text: NCI tumour cell line growth inhibition, 48 h
Active and inactive are the calls of the source. Rule as the data show it: active = GI50 up to about 1.1 µM and inactive = higher.
Lab note: assign the record to one of true = active, false = inactive

Examples with answers:
> print(dat)
                                   compound  experimental.system  group
1  CCOC(=O)C(C)NC(=O)NC12CC3CC(CC(F)(C3)C1)C2 (configuration not stated)                786-0  false
2            COc1ccc2nc(-c3ccc(O)cc3)ccc2c1                786-0  false
3  O=[N+]([O-])c1cccc(-c2ccc([C@H]3CC(c4ccc(Cl)cc4)=NN3)o2)c1                786-0  false
4  O=[N+]([O-])c1ccc2c(c1)Cc1cc(/N=C/c3ccc4c(c3)OCO4)ccc1-2                786-0  false
5  O=C1CC(NC(=O)C(F)(F)F)c2c1csc2Br (configuration not stated)                786-0  false

# fetch the recorded call for COC(=O)C(C(=O)C(=O)Nc1nnc(S)[nH]1)c1csc(-n2nc(-c3ccccc3)cc2-c2ccccc2)n1 (configuration not stated) here
false

---

# Tested on: T47D
# Assay Text: NCI tumour cell line growth inhibition, 48 h
Activity calls are given as the source filed them. Rule as the data show it: active = GI50 up to about 1.1 µM and inactive = higher.
Readout Name: GI50

Observe how each entry below is paired with its result.
> print(dat)
                               entry.smiles  experimental.system  readout.name  experimental.result
1  O=[N+]([O-])c1ccc2c(c1)Cc1cc(/N=C/c3ccc4c(c3)OCO4)ccc1-2                 T47D          GI50  > 100 µM (inactive)
2  CC(=O)Nc1sc([N+](=O)[O-])cc1S(=O)(=O)c1ccc(Cl)cc1                 T47D          GI50   2.04 µM (inactive)

For the molecule CC[P+]1(c2ccccc2)[C@@H](C)CC[C@@H]1C , what GI50 is on record?
> 100 µM (inactive)

---

# System: HL-60
# Assay Text: NCI tumour cell line growth inhibition, 48 h
Calls of active or inactive are those of the source. Rule as the data show it: active = GI50 up to about 1.1 µM and inactive = higher.
Lab note: assign the record to one of active, inactive

Examples with answers:
> print(dat)
                                   molecule  experimental.system     group
1  CCOC(=O)c1nc2ccc(C(F)(F)F)cc2nc1NCc1cc(OC)c(OC)c(OC)c1                HL-60  inactive
2         O=S(=O)(c1ccccc1)c1ccc(/N=N/O)nc1                HL-60  inactive
3  Cc1c(C(=O)OCc2ccccc2)[n+]([O-])c2cc(F)c(F)cc2[n+]1[O-]                HL-60    active

# fetch the recorded call for COC(=O)c1cc(NC(=O)Cc2c[nH]c3ccccc23)cn1C here
inactive

# fetch the recorded call for O=C1CCCC/C1=C(\Br)I here
inactive

---

# Test system: DMS-114
# Assay Text: NCI tumour cell line growth inhibition, 48 h
Activity calls are given as the source filed them. No stated cut-off is given here; in the data, active = GI50 up to about 1.1 µM and inactive = higher.
Could you please report measured GI50 for the items listed next?

For each of the items listed, what is its GI50?
1. C[n+]1cc(C(O)c2ccc3c(c2)OCO3)c2ccccc2c1 (configuration not stated)
2. COC(=O)C1C(=O)NC2(C)CC1c1ccccc1O2 (configuration not stated)
3. COC(=O)C(CCS(=O)(=O)CC(=O)C(=O)Nc1cccc(C(C)=O)c1)C(=O)OC
4. C=CCN1COc2c(cc3c4c(cccc24)C(=O)O3)C1
5. COc1ccc(/C=C2\CCC(Cc3ccccc3)(CN(C)C)C2=O)cc1 (configuration not stated)
6. CC1=C2C(O)C(C(C)C(=O)NC(C)C)CCC2(C)C=CC1=O (configuration not stated)

21.9 µM (inactive)
> 100 µM (inactive)
> 39.4 µM (inactive)
17.9 µM (inactive)
18.2 µM (inactive)
> 100 µM (inactive)

---

# Tested on: KM12
# Assay Text: NCI tumour cell line growth inhibition, 48 h
Active and inactive are the calls of the source. No stated cut-off is given here; in the data, active = GI50 up to about 1.1 µM and inactive = higher.
Readout Name: GI50

Observe how each entry below is paired with its result.
> print(dat)
                                   molecule  readout.name  experimental.result
1  N#Cc1nc(CCC(c2nc(C#N)c(N)o2)N2C(=O)c3ccccc3C2=O)oc1N (stereo not drawn)          GI50  > 100 µM (inactive)
2  CC(C)=CCC/C(C)=C/CCC1(C)C2COC(=O)C21 (stereo not drawn)          GI50   34.9 µM (inactive)

Now for another entry.
For the molecule NC1=NN(c2ccccc2)C(=O)C1/C(=N\NC(=O)c1cc2ccccc2cc1O)C(=O)Nc1nc([N+](=O)[O-])cs1 (stereo not drawn) , what GI50 is on record?
30.3 µM (inactive)

---

# Test system: OVCAR-3
# Assay Text: NCI tumour cell line growth inhibition, 48 h
Calls of active or inactive are those of the source. No stated cut-off is given here; in the data, active = GI50 up to about 1.1 µM and inactive = higher.
Lab note: assign the record to one of 1 (active), -1 (inactive)

Compound	Group
O=C1C(Cl)C(c2ccccc2)N1n1cnc2ccccc2c1=O (stereo not given)	-1
C=C(C)C1CCC2(C)C1CCC1(C)C2CCC2C3(C)C4OC(OC4=O)C(C)(C)C3CCC21C (stereo not given)	-1

# fetch the recorded call for COc1cc(COC(=O)N(C)[C@@H](Cc2ccccc2)C(=O)O)c([N+](=O)[O-])cc1OC here
-1

# fetch the recorded call for N#C/C(=C1\N=NC(N)=C(c2ccc(Cl)cc2)C1=O)c1ccc(Cl)cc1 here
-1

---

Could you please report measured GI50 for the items listed next?
# System: NCI-H23
# Assay Text: NCI tumour cell line growth inhibition, 48 h
Activity calls are given as the source filed them. Rule as the data show it: active = GI50 up to about 1.1 µM and inactive = higher.

Observe how each entry below is paired with its result.
> print(dat)
                                   compound  experimental.result
1   COc1ccc(-c2cc3cc(Cl)cc(Cl)c3oc2=O)cc1OC   36.5 µM (inactive)
2  C=C1C(O)C2OC(=O)C(=C)C2C(OC(=O)/C(C)=C/C)CC2(C)OC2C2OC12 (stereo not drawn)   8.28 µM (inactive)
3  Cc1ccc(Nc2nc3c(s2)C(=O)c2ccccc2C3=O)c(C)c1   10.1 µM (inactive)
4             O=C(O)c1cccc(/C=C/c2ccccc2)c1  > 100 µM (inactive)
5         O=S(=O)(c1ccccc1)c1ccc(/N=N/O)nc1  > 100 µM (inactive)

For each of the items listed, what is its GI50?
1. CCOc1cc(C2SCC(=O)N2c2ccc(Oc3ccc(Cl)cc3)c(Cl)c2)ccc1O (stereo not drawn)
2. CCOc1ccccc1NC(=O)C(=O)Cc1nc2ccccc2s1
3. COc1ccc(/C=C2\CCC(Cc3ccccc3)(CN(C)C)C2=O)cc1 (stereo not drawn)

["17 µM (inactive)", "> 100 µM (inactive)", "44 µM (inactive)"]
